# experimental.target: Grb2 SH2 (UniProt P62993)
# Sequence (P62993 whole entry, looked up, the tested form may be a part): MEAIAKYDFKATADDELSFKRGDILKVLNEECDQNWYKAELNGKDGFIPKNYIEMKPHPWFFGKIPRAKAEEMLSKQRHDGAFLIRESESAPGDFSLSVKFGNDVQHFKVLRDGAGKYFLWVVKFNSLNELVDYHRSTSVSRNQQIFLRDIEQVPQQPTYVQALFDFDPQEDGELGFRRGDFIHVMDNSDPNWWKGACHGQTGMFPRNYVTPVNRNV
# assay.explanation: SH2 binding enrichment of the phosphorylated peptide, bacterial display (enrichment ratio); higher = better substrate or ligand; peptides without Tyr show the background;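 further: peptide library displayed on the E. coli surface as eCPX fusions, selected cells deep-sequenced, score is each peptide's frequency after selection divided by its frequency in the input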
assay.metric: SH2 binding enrichment
Just the number, please, no unit attached.

Some entries whose results are on file:
For the sequence QFQLKYSETPF [SIX6OS1_Y129_YF] , what SH2 binding enrichment is on record?
1.01

For the sequence CTTIHYNYMHN [TP53_Y234_C238H] , what SH2 binding enrichment is on record?
0.995

Below: the item to evaluate.
For the sequence LRYDSYWSYCN [SLC20A2_Y433_S434W] , what SH2 binding enrichment is on record?
0.974
